Test system: UACC-62 melanoma
Run Description: NCI-60 one-dose screen, 48 h
Measurement Setup: 10 µM unless noted
Experimental: Growth inhibition of the UACC-62 human tumor cell line is measured as a screen for anti-cancer activity. Cells are grown in 96 well plates and exposed to the test compound for 48 hours. Compounds are tested at a single concentration, which is 10^-5 M for most compounds. The reported endpoint is percent growth (GI% or GIPRCNT), where numbers from 0 - 100% represent growth inhibition, and numbers from -100% - 0 represent cell death. For example, a value of 40 represents 60% growth inhibition. […]
About 83,000 compounds went through this panel and 20% of them were active in at least one assay; those are over-represented in the sample as a whole. Activity calls are given as the source filed them. The calls were made as follows: active = growth percent below 10; inactive = the rest.
// allowed return values: Yes = active, No = inactive

Test call, this molecule: `O=C(NNc1nc2cc(F)ccc2n2c(CN3CC4(COC4)C3)ccc12)c1cnccn1`
Yes

Test call, this molecule: `O=c1[nH]c2ccccc2cc1CSc1ccccc1Nc1nccc(-c2ccc(C(F)(F)F)cc2)n1`
No

Test call, this molecule: O=C(c1ccc(O)cc1)C1[C@H](c2ccc(Cl)cc2)[C@@H](c2ccccc2)NC12C(=O)Nc1ccc(Cl)cc12 (stereo not given in full)
No

Test call, this molecule: `N#Cc1ccc(/C=N/NC(=O)c2[nH]c3ccc(Br)cc3c2-c2ccccc2)s1`
No

Test call, this molecule: `CCN(CC)c1ccc(C=O)c(OCc2cn(CC(=O)Nc3ccc(Cl)cc3)nn2)c1`
No

====

growth for assorted molecules
Test system: SK-MEL-5 melanoma
Run Description: NCI-60 one-dose screen, 48 h (100 = growth as untreated, 0 = no growth, -100 = all killed)
Measurement Setup: 10 µM unless noted
The panel holds about 83,000 compounds, 20% with a hit somewhere; the sample as a whole holds those more often.
Numbers only; they are read as %.

As a guide, the following entries are already answered.
Molecule: CN(C)CCCOc1c2ccc(Cl)cc2nc2c1oc1ccc(Cl)cc12
Units Text: %
growth: -19.3
--
Molecule: Cc1cc(=O)oc2cc(OCCCOc3ccc(/C=C/C(=O)Nc4ccc(Cl)cc4)cc3)ccc12
Units Text: %
growth: 55.9
--
Molecule: c1ccc(CNc2ncnc3ccc(-c4cnc5[nH]ncc5c4)cc23)cc1
Units Text: %
growth: 88.4

Proceeding to the next molecule to report its growth.
Quick note, growth for `CN1CCN(Cc2ccc(NC(=O)c3cncc(C#Cc4cnc5ccc(N6CCSCC6)nn45)c3)cc2C(F)(F)F)CC1` landed at 7.81

====

System: KM12 colon
Run Description: NCI-60 one-dose screen, 48 h (100 = growth as untreated, 0 = no growth, -100 = all killed)
Measurement Setup: 10 µM unless noted
This is part of a sample that, as a whole, favours compounds with a hit. Of some 83,000 tested, about 20% had one in any assay. Active and inactive are the calls of the source. The calls were made as follows: active = growth percent below 10; inactive = the rest.
growth for assorted compounds

As a guide, the following entries are already answered.
Structure Smiles String: Cc1cc2nc3c4cc(Cl)ccc4n(CC(=S)NCCN(C)C)c3nc2cc1C
growth: -60.2% (active)
--
Structure Smiles String: C=CCn1c(SCC(=O)c2ccc(Br)cc2)nnc1-c1c[nH]c2ccccc12
growth: 102% (inactive)
--
Structure Smiles String: CN(C)CCCOc1c2ccccc2nc2c1oc1ccc(Cl)cc12
growth: 1.62% (active)

Quick note, growth for `Cn1cc(-c2cc(N)n3nc(-c4cn(C)c5ccc(Br)cc45)cc3n2)c2cc(Br)ccc21` landed at 64.8% (inactive)

Quick note, growth for `Clc1ccc2c(NCCCn3ccnc3)c3oc4ccccc4c3nc2c1` landed at 30.1% (inactive)

====

System: NCI/ADR-RES ovarian
Run Description: NCI-60 one-dose screen, 48 h (100 = growth as untreated, 0 = no growth, -100 = all killed)
Measurement Setup: 10 µM unless noted
This is part of a sample that, as a whole, favours compounds with a hit. Of some 83,000 tested, about 20% had one in any assay. Activity calls are given as the source filed them. How the source made its calls: active means growth percent below 10; inactive means the rest.
Measurement Type: growth

As a guide, the following entries are already answered.
Molecule: COc1cc2cc(Oc3ccc(NC(=O)c4cccc(C(F)(F)F)c4)cc3)c(C)nc2cc1OCCN1CCCCC1
growth: 75.4% (inactive)

Molecule: N#Cc1nc(-c2ccccc2)oc1N1CCC(CO)C1 (stereo not given)
growth: 106% (inactive)

Molecule: COc1cc(/C=C/C(=O)c2ccccc2)ccc1Oc1nc(NCCO)nc(N2CCOCC2)n1
growth: 107% (inactive)

Molecule: Cc1ccc(C(=O)Nc2cccc(C(F)(F)F)c2)cc1Nc1nc(-c2cnccn2)nc2c1cnn2C
growth: 75.6% (inactive)

Quick note, growth for `N/C(=N\c1nc2c(Cl)cc(Cl)cc2s1)C(Cl)(Cl)Cl` landed at 68.3% (inactive)

====

Tested on: A549/ATCC NSCLC
Run Description: NCI-60 one-dose screen, 48 h (100 = growth as untreated, 0 = no growth, -100 = all killed)
Measurement Setup: 10 µM unless noted
This is part of a sample that, as a whole, favours compounds with a hit. Of some 83,000 tested, about 20% had one in any assay.
The label is Met for growth below 40% and Not met for growth equal to or exceeding 40%.

Recorded results for 5 molecules are shown here.
Molecule: COc1cc(/C=C/C(=O)c2ccc(Cl)cc2)ccc1Oc1nc(NCCO)nc(N2CCOCC2)n1
Class Assignment: Not met
--
Molecule: CCN1C(=S)N(CC)C2C1NN=C1SC(c3ccccc3)=CC(=O)N12 (centres undefined)
Class Assignment: Not met
--
Molecule: CC(=O)Oc1ccccc1C(=O)Nc1ccc(C(=O)/C=C/c2cccs2)cc1
Class Assignment: Not met
--
Molecule: Cc1[nH]nc2ncc(C#Cc3cncc(C(=O)Nc4ccc(CN5CCN(C)CC5)c(C(F)(F)F)c4)c3)cc12
Class Assignment: Met
--
Molecule: CCCCN1C(=O)/C(=c2\sc3n(c2=O)C2C(NN=3)N(CC)C(=O)N2CC)c2cc(Cl)ccc21 (centres undefined)
Class Assignment: Not met

Lab note: growth threshold 40%. Does this molecule come in strictly under it? `Nc1c(C(=O)c2ccc(Br)cc2)oc2nc(-c3cnccn3)cc(-c3cccs3)c12`
Not met

Lab note: growth threshold 40%. Does this molecule come in strictly under it? `Cc1c(NC(=O)CSc2nc3sc4c(c3c(=O)n2-c2ccc(Cl)cc2)CCCC4)c(=O)n(-c2ccccc2)n1C`
Not met

Lab note: growth threshold 40%. Does this molecule come in strictly under it? `Fc1ccc(-c2nc(C(Cl)Cl)nc3cc(-c4ccccc4)nn23)cc1`
Met

Lab note: growth threshold 40%. Does this molecule come in strictly under it? `COc1cccc(-c2nn(-c3ccccc3)cc2-c2ccnc(N3CCN(C(=O)Nc4ccc(F)cc4)CC3)c2)c1`
Not met

Lab note: growth threshold 40%. Does this molecule come in strictly under it? `CC(C)(C)OC(=O)N1C(=O)c2c(c3c4ccccc4[nH]c3c3ccc4ccccc4c23)C1=O`
Not met

Lab note: growth threshold 40%. Does this molecule come in strictly under it? `NS(=O)(=O)c1cccc(Nc2nc(SCC(=O)c3ccc(Br)cc3)nc3ccccc23)c1`
Not met

====

Tested on: NCI-H522 lung
Run Description: NCI-60 one-dose screen, 48 h (100 = growth as untreated, 0 = no growth, -100 = all killed)
Measurement Setup: 10 µM unless noted
About 83,000 compounds went through this panel and 20% of them were active in at least one assay; those are over-represented in the sample as a whole. Activity calls are given as the source filed them. The calls were made as follows: active = growth percent below 10; inactive = the rest.
growth for assorted molecules

Molecule: Fc1ccc(-c2nc(C(Cl)Cl)nc3cc(-c4ccccc4)nn23)cc1
Result: -41.4% (active)

Molecule: NS(=O)(=O)c1cccc(Nc2nc(SCC(=O)c3ccc([N+](=O)[O-])cc3)nc3ccccc23)c1
Result: 19.3% (inactive)

Molecule: O=C(CSc1nccc(=O)[nH]1)Nc1ccc(-c2nc3ccccc3[nH]2)cc1
Result: 104% (inactive)

Molecule: COc1cc(/C=C/C(=O)c2ccc(F)cc2)ccc1Oc1nc(NCCO)nc(N2CCOCC2)n1
Result: 64.9% (inactive)

Molecule: O=C(CCN1C(=O)/C(=C/c2ccccc2F)SC1=S)N1CCOCC1
Result: 41.4% (inactive)

Molecule: Nc1cc(-c2c[nH]c3ccc(Cl)cc23)nc2cc(-c3c[nH]c4ccc(Cl)cc34)nn12
Result: 28.8% (inactive)

Molecule: Cn1ccnc1C(=O)/C=C/c1ccc(NC(=O)Nc2ccc(F)cc2)cc1
Result: 14.7% (inactive)

Molecule: CN(C)CCCNc1c2ccc(Cl)cc2nc2c1oc1ccc(Cl)cc12
Result: 16.7% (inactive)

Molecule: c1ccc2c(NCCCN3CCOCC3)c3oc4ccccc4c3nc2c1
Result: -52.8% (active)

Molecule: COc1ccc(-c2nc3ccc(-c4nnc(SCC(=O)Nc5ccc(C(=O)/C=C/c6ccccc6)cc5)o4)cc3[nH]2)cc1OC
Result: 98.4% (inactive)

Proceeding to the next molecule to report its growth.
Quick note, growth for CCCC(=O)NC(c1ccc2c(c1)OC(F)(F)O2)c1cc(C)c2cccnc2c1O (stereo not drawn) landed at 18.2% (inactive)
